Test system: E. coli TESEC Mtb Alr
Assay: growth (OD600 after 10 h); higher = more growth (less inhibition)
Details: arabinose 1000000 nM; compound 0.1 mM; raw OD600 reference: median of DMSO wells 0.193, cell-free background 0.041
Where a name gives a salt, the structure may show the parent alone.
ATTRIBUTE_MEASURED: growth
Give a plain numeric answer without units written out.

Complete the entry with growth for C=CCc1ccccc1OCC(O)CNC(C)C (stereo unspecified) [Alprenolol hydrochloride] 0.156

Complete the entry with growth for COc1ccc(CN(CCN(C)C)c2ccccn2)cc1 [Pyrilamine maleate] 0.154

Complete the entry with growth for CC(C)(C)C(=O)OCOC(=O)[C@@H]1N2C(=O)[C@@H](/N=C/N3CCCCCC3)[C@H]2SC1(C)C [Pivmecillinam hydrochloride] 0.191

Complete the entry with growth for C[C@@H]1C[C@H]2[C@@H]3C[C@H](F)C4=CC(=O)C=C[C@]4(C)[C@@]3(F)[C@@H](O)C[C@]2(C)[C@@]1(O)C(=O)CO 0.154

Complete the entry with growth for CC(C)(C(=O)O)c1ccc(C(O)CCCN2CCC(C(O)(c3ccccc3)c3ccccc3)CC2)cc1 (stereo unspecified) [Fexofenadine HCl] 0.184

All values here come from the supplement of paper PMC9262897.
